# Measurement description: PAMPA (parallel artificial membrane permeability assay)
# Type: in vitro ADME
# Experimental setup: PAMPA; membrane permeation rate (Pe); 50 mM MOPSO buffer pH 6.5 with 5.0% glycocholic acid, 37° C., 18 hours; read-out: iPAMPA Pe
Starred links: 1 amine or outer side, 2 acyl side, 3 side chain; linkers in the order of their positions; H or OH if unused. Positions of bridges follow the written chain, without caps; N, C: chain ends. Non-standard residues stand in square brackets, D forms with d. Residues, ends and D or L forms follow the SMILES beside them. *: point of attachment. NMeF = CN[C@@H](Cc1ccccc1)C(=O)O; NMeβAla = CN(CCC(=O)[*:2])[*:1]; NMeL = CN[C@@H](CC(C)C)C(=O)O; NMeV = CN[C@H](C(=O)O)C(C)C; NMeA = CN[C@@H](C)C(=O)O; Piperidide = C1CCN(*)CC1
Endpoint name: Papp at 18 hours, 50 µM (×10⁻⁶ cm/s)

>>> reported_measurement("CC(C)C[C@@H]1NC(=O)[C@H](CC(C)C)N(C)C(=O)[C@H](C)N(C)C(=O)[C@@H](C(C)C)NC(=O)C[C@@H](C(=O)N2CCCCC2)NC(=O)[C@H](CCC(=O)N(C)C)NC(=O)[C@H](CC(C)C)N(C)C(=O)[C@H](C)N(C)C(=O)[C@H](CC(C)C)N(C)C(=O)[C@H](Cc2ccccc2)NC(=O)[C@H](Cc2ccccc2)N(C)C1=O [DP-618] ([dV][NMeA][NMeL]L[NMeF]F[NMeL][NMeA][NMeL]E(NMe2)D-Piperidide; lactam N-11)")
28
>>> reported_measurement("CC(C)C[C@H]1C(=O)N(C)[C@@H](Cc2ccccc2)C(=O)N[C@@H]([C@@H](C)O)C(=O)N[C@@H](C)C(=O)N(C)[C@@H](C)C(=O)N[C@H](C(=O)N(C)[C@@H](Cc2ccccc2)C(=O)N[C@@H](C)C(=O)N2CCCCC2)CC(=O)N(C)CCC(=O)N(C)[C@@H](Cc2ccccc2)C(=O)N(C)[C@@H](C(C)C)C(=O)N(C)[C@@H](C)C(=O)N[C@@H](C)C(=O)N1C [DP-360] ([NMeβAla][NMeF][NMeV][NMeA]A[NMeL][NMeF]TA[NMeA]D[NMeF]A-Piperidide; lactam N-11)")
7.3

* * *

# Measurement description: PAMPA (parallel artificial membrane permeability assay)
# Type: in vitro ADME
# Experimental setup: PAMPA; membrane permeation rate (Pe); 50 mM MOPSO buffer pH 6.5 with 5.0% glycocholic acid, 37° C., 18 hours; read-out: iPAMPA Pe
Starred links: 1 amine or outer side, 2 acyl side, 3 side chain; linkers in the order of their positions; H or OH if unused. Positions of bridges follow the written chain, without caps; N, C: chain ends. Non-standard residues stand in square brackets, D forms with d. Residues, ends and D or L forms follow the SMILES beside them. *: point of attachment. Phe(3-(CH2)4CO) = O=C([C@H](Cc1cccc(CCCCC(=O)[*:3])c1)N[*:1])[*:2]; NMeF = CN[C@@H](Cc1ccccc1)C(=O)O; NMeI = CC[C@H](C)[C@H](NC)C(=O)O; NMeβAla = CN(CCC(=O)[*:2])[*:1]; NMeL = CN[C@@H](CC(C)C)C(=O)O; NMeV = CN[C@H](C(=O)O)C(C)C; NMeA = CN[C@@H](C)C(=O)O; Piperidide = C1CCN(*)CC1; Sar = CNCC(=O)O; tBu = CC(C)(C)*
Could you mark each record yes if its Papp at 18 hours, 50 µM falls strictly under 30 ×10⁻⁶ cm/s, and no if it equals or exceeds it?

>>> class("CC[C@H](C)[C@H]1C(=O)N[C@@H](C)C(=O)N(C)[C@@H](CC(C)C)C(=O)N[C@@H](COC(C)(C)C)C(=O)N(C)[C@@H](CC(C)C)C(=O)N[C@H](C(=O)N2CCCCC2)Cc2cccc(c2)CCCCC(=O)N[C@@H](Cc2ccccc2)C(=O)N(C)[C@@H](Cc2ccccc2)C(=O)N(C)[C@@H](CC(C)C)C(=O)N[C@@H]([C@@H](C)O)C(=O)N(C)[C@@H](C)C(=O)N1C [DP-874] (F[NMeF][NMeL]T[NMeA][NMeI]A[NMeL]S(tBu)[NMeL][Phe(3-(CH2)4CO)]-Piperidide; lactam N-11)")
"yes"
>>> class("CC(C)C[C@H]1C(=O)N(C)[C@@H](Cc2ccccc2)C(=O)N[C@H](C(=O)N2CCCCC2)CC(=O)N(C)[C@@H](C)C(=O)N[C@@H](C)C(=O)N[C@@H]([C@@H](C)O)C(=O)N(C)[C@@H](CC(C)C)C(=O)N[C@@H](Cc2ccccc2)C(=O)N1C [DP-699] ([NMeA]AT[NMeL]F[NMeL][NMeF]D-Piperidide; lactam N-8)")
"yes"
>>> class("CC[C@H](C)[C@@H]1NC(=O)[C@H](Cc2ccccc2)N(C)C(=O)[C@H](CC(C)C)N(C)C(=O)[C@H](Cc2ccccc2)NC(=O)[C@H](C)N(C)C(=O)[C@H]([C@@H](C)O)NC(=O)CCN(C)C(=O)C[C@@H](C(=O)N2CCCCC2)NC(=O)[C@H](CC(C)C)N(C)C(=O)[C@H](C(C)C)N(C)C1=O [DP-427] ([NMeβAla]T[NMeA]F[NMeL][NMeF]I[NMeV][NMeL]D-Piperidide; lactam N-10)")
"no"
>>> class("CC(C)C[C@H](NC(=O)[C@H](Cc1ccccc1)N(C)C(=O)[C@@H]1CC(=O)N[C@H](C)C(=O)N[C@@H](C(C)C)C(=O)N(C)[C@@H](Cc2ccccc2)C(=O)N(C)[C@@H](CC(C)C)C(=O)N(C)[C@@H](C)C(=O)N[C@@H]([C@@H](C)O)C(=O)N[C@@H](Cc2ccccc2)C(=O)N1)C(=O)N[C@@H](C)C(=O)N1CCCCC1 [DP-658] ([dA]V[NMeF][NMeL][NMeA]TFD[NMeF]LA-Piperidide; lactam N-8)")
"no"
>>> class("CC[C@H](C)[C@H](NC(=O)[C@@H]1CC(=O)N[C@@H](C)C(=O)N[C@@H]([C@@H](C)O)C(=O)N(C)CC(=O)N[C@@H](CC(C)C)C(=O)N2CCC[C@H]2C(=O)N(C)[C@@H](CC(C)C)C(=O)N[C@@H](Cc2ccccc2)C(=O)N(C)[C@@H](Cc2ccccc2)C(=O)N(C)[C@@H](C)C(=O)N(C)[C@@H](CC(C)C)C(=O)N[C@@H](C)C(=O)N(C)[C@@H](CC(C)C)C(=O)N1)C(=O)N1CCCCC1 [DP-955] (AT[Sar]LP[NMeL]F[NMeF][NMeA][NMeL]A[NMeL]DI-Piperidide; lactam N-13)")
"yes"

Recorded values, source patent US9409952B2.
